Listed next: entries and their corresponding inhibition at 0.1 µM.
study-target: human 5-HT1A receptor (Homo sapiens, UniProt P08908)
Construct: expressed in transfected cells; host or cells: CHO cells
Sequence (P08908 whole entry): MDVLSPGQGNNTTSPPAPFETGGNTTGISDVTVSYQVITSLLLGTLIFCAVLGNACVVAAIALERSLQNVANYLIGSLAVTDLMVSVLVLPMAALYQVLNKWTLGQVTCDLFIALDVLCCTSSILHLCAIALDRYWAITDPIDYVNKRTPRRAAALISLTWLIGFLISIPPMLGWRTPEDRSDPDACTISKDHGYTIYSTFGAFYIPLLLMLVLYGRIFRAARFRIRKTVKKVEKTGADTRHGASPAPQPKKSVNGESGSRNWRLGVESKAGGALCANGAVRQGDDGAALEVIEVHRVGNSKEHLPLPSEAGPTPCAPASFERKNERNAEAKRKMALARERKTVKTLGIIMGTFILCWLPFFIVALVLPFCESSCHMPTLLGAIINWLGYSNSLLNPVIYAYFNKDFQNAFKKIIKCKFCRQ
assay-procedure: 5-HT1A receptor binding assay
condition-parameters: 100 nM compound; 0.5 nM [3H]-8-OH-DPAT, 60 minutes at 22° C., CHO cells; read-out: % inhibition of control specific at 100 nM conc.
measured-quantity: inhibition at 0.1 µM (%)

given_smiles=Cc1cccc(O[C@@H]2CCNC[C@H]2O)c1C measured_quantity="inhibition at 0.1 µM" obs_value=16
given_smiles=Cc1cccc(O[C@@H]2CCNC[C@@H]2O)c1C measured_quantity="inhibition at 0.1 µM" obs_value=9
given_smiles=Cc1cccc(O[C@H]2CCNC[C@@H]2O)c1C measured_quantity="inhibition at 0.1 µM" obs_value=-8
given_smiles=Cc1cccc(O[C@H]2CCNC[C@H]2O)c1C measured_quantity="inhibition at 0.1 µM" obs_value=39
